The following molecules are listed with their measured GI50 values.
- Test system: SK-OV-3 ovarian
- Protocol Details: NCI tumour cell line growth inhibition, 48 h

1) O=C1/C(=C\c2coc3ccccc3c2=O)c2ccccc2N1c1c(Cl)cccc1Cl 35.6 µM

Q) I am curious: what GI50 value has been reported for `COc1ccc(/C=C\c2cc(OC)c(OC)c(OC)c2)cc1OC(=O)c1cccc(Cn2cc(CCOC(=O)c3cccc(Cn4nnc5c4C(=O)c4ccccc4C5=O)c3)nn2)c1` ?
A) 2.73 µM

Q) I am curious: what GI50 value has been reported for `COc1cc2c3c(n(CCN(C)C)c(=O)c2cc1OC)-c1cc2c(cc1C3=O)OCO2` ?
A) > 29 µM

Q) I am curious: what GI50 value has been reported for `O=C(c1cccs1)c1c(C(F)(F)F)n([O-])c2ccc(F)cc2[n+]1=O` ?
A) 1.85 µM

Q) I am curious: what GI50 value has been reported for `CC[CH2][Sn]([Cl])([Cl])[CH2]CC` ?
A) 25.7 µM

Q) I am curious: what GI50 value has been reported for `COc1cc([C@@H]2c3cc4c(cc3[C@@H](O[C@@H]3O[C@@H]5CO[C@@H](c6cccs6)O[C@H]5[C@H](O)[C@H]3O)[C@H]3COC(=O)[C@H]23)OCO4)cc(OC)c1O` ?
A) 0.456 µM

Q) I am curious: what GI50 value has been reported for `CCOC(=O)c1c(C)n2c(=O)cc(C)c3c(OC(C)=O)c(OC(C)=O)cc1c32` ?
A) 11.8 µM

Q) I am curious: what GI50 value has been reported for `COc1c(CNC(=O)CCl)cc2[nH]c(C)cc2c1CNC(=O)CCl` ?
A) 12.4 µM

====

- System: HT29 colon
- Protocol Details: NCI tumour cell line growth inhibition, 48 h; in the data active means GI50 below about 0.43 µM; inactive means the rest
In this exercise, the only acceptable responses are TRUE for active, FALSE for inactive

Q) Which outcome did this test record for the compound `COc1ccc(/C=C\c2cc(OC)c(OC)c(OC)c2)cc1OC(=O)c1cccc(Cn2cc(CCOC(=O)c3cccc(Cn4nnc5c4C(=O)c4ccccc4C5=O)c3)nn2)c1` ?
A) TRUE

Q) Which outcome did this test record for the compound `CC(=O)OC[C@]12CC[C@@H]([C@@H](C)C(N)=O)[C@@H]1[C@H]1CC[C@@H]3[C@@]4(C)CC[C@H](OC(C)=O)C(C)(C)[C@@H]4CC[C@@]3(C)[C@]1(C)CC2` ?
A) FALSE

Q) Which outcome did this test record for the compound `N#Cc1c(-c2ccccc2)cc(-c2ccccc2)n(CCCCC(=O)NO)c1=O` ?
A) FALSE

Q) Which outcome did this test record for the compound CNC(C)C(=O)N[C@H](C(=O)N1CCC[C@@H]1CN(CCc1ccccc1)C(=O)C(F)(F)F)[C@H](C)OCC#CC#CCO[C@H](C)[C@H](NC(=O)[C@H](C)NC)C(=O)N1CCC[C@H]1CN(CCc1ccccc1)C(=O)C(F)(F)F (stereo partly specified) ?
A) FALSE

Q) Which outcome did this test record for the compound `O=C(c1cccs1)c1c(C(F)(F)F)n([O-])c2ccc(F)cc2[n+]1=O` ?
A) FALSE

Q) Which outcome did this test record for the compound `Oc1cc(O)c2c(=S)cc(-c3ccc(Cl)cc3)oc2c1` ?
A) FALSE

====

The following compounds are listed with their measured TGI values.
- System: 786-0 renal
- Protocol Details: NCI tumour cell line growth inhibition, 48 h

Check out these entries, answers already filled in.
Compound	TGI
Cc1cc(C(=O)N2CCN(Cc3ccccc3)CC2)c(C)o1	> 100 µM
CN(C)C=Nc1cccc2cnccc12	> 100 µM
CN(c1ccccc1)C1C(=O)N(c2ccccc2)C1/C=C/c1ccccc1 (stereo not given)	> 100 µM
O=C(OCC12CC3CC(CC(C3)C1)C2)c1ccc(NCc2cc(O)ccc2O)cc1	2.35 µM
CSc1ccc2c(cc1=O)C(NC(=O)c1ccc(OC(C)=O)cc1)CCc1cc(O)c(O)c(O)c1-2 (stereo not given)	> 100 µM

Q) I am curious: what TGI value has been reported for C#CCOC(=O)C(N)CSSCC(N)C(=O)O (stereo not given) ?
A) > 100 µM

Q) I am curious: what TGI value has been reported for `Cc1cc(-c2nc(-c3ccc(OC(F)(F)F)cc3)no2)nn1Cc1ccnc(N2CCN(C3CC3)CC2)c1` ?
A) > 100 µM

Q) I am curious: what TGI value has been reported for `CCOC(=O)c1cc2c([nH]1)C(=O)CC1=C2CCN1Cc1ccccc1` ?
A) 31 µM

Q) I am curious: what TGI value has been reported for `O=C(Nc1nc2ccc([N+](=O)[O-])cc2[n+]([O-])n1)C(F)(F)F` ?
A) > 100 µM

Q) I am curious: what TGI value has been reported for `Cc1c[nH]c(C(=O)O)c1-c1ccc2c(-c3ccccc3)nc3ccccc3n12` ?
A) > 100 µM

====

- System: MALME-3M melanoma
- Protocol Details: NCI tumour cell line growth inhibition, 48 h; in the data active = GI50 below about 0.43 µM; inactive = the rest
In this exercise, the only acceptable responses are yes for active, no for inactive

Q) Which outcome did this test record for the compound CCN(CC)CCCC(Nc1c2ccc(Cl)cc2nc2ccc(OC)cc12)c1ccc(F)cc1 (configuration not stated) ?
A) no

Q) Which outcome did this test record for the compound `CCCN(CCC)CCCNC(=O)c1cc2c(-c3ccc(OC)c(OC)c3)nn(C)c2s1` ?
A) no

Q) Which outcome did this test record for the compound `CC[CH2][Sn]([Cl])([Cl])[CH2]CC` ?
A) no

Q) Which outcome did this test record for the compound `Clc1ccc(-c2nn3ncccc3c2-c2ccnc(Nc3ccccc3)n2)cc1` ?
A) no

Q) Which outcome did this test record for the compound CNC(C)C(=O)N[C@H](C(=O)N1CCC[C@@H]1CN(CCc1ccccc1)C(=O)C(F)(F)F)[C@H](C)OCC#CC#CCO[C@H](C)[C@H](NC(=O)[C@H](C)NC)C(=O)N1CCC[C@H]1CN(CCc1ccccc1)C(=O)C(F)(F)F (some centres not stated) ?
A) yes

Q) Which outcome did this test record for the compound CC1=C([Se]CC(OC(=O)[C@@H](CO)NC(=O)OC(C)(C)C)C(=O)NC(C)(C)C)C(=O)c2ccccc2C1=O (some centres not stated) ?
A) no

Q) Which outcome did this test record for the compound `CCCCN(CCCC)CCCN=c1nc2c(c(N)n1-c1ccccc1)c(=S)n(-c1ccccc1)c(=S)n2-c1ccccc1` ?
A) no

Q) Which outcome did this test record for the compound `c1ccc(-c2nn(-c3ccccc3)[n+](-c3cccc4ccccc34)n2)cc1` ?
A) yes

Q) Which outcome did this test record for the compound `CN(C)CCCNc1nccc(-c2c(-c3ccc(F)cc3)nn3cc(C(F)(F)F)ccc23)n1` ?
A) no

Q) Which outcome did this test record for the compound `O=C1/C(=C\c2coc3ccccc3c2=O)c2ccccc2N1c1c(Cl)cccc1Cl` ?
A) no

Q) Which outcome did this test record for the compound `C#CCNC(=O)CC[C@]1(C)[C@H]2CC[C@@H]3[C@@H]([C@@](C)(O)CCC=C(C)C)CC[C@@]3(C)[C@]2(C)CC[C@H]1C(=C)C` ?
A) no

Q) Which outcome did this test record for the compound `CCOC(=O)c1c(C)n2c(=O)cc(C)c3c(OC(C)=O)c(OC(C)=O)cc1c32` ?
A) no

====

- System: PC-3 prostate
- Protocol Details: NCI tumour cell line growth inhibition, 48 h
Reported Metric: TGI (µM)
Unit µM implied. Number only.

Compound	Assayed Target	Reported Metric	Numeric Result
CCCCN(CCCC)CCCN=c1nc2c(c(N)n1-c1ccccc1)c(=S)n(-c1ccccc1)c(=S)n2-c1ccccc1	PC-3 prostate	TGI	1.94

With those in mind, consider the next compound.
Q) I am curious: what TGI value has been reported for `CC(=O)OC[C@]12CC[C@@H]([C@@H](C)C(N)=O)[C@@H]1[C@H]1CC[C@@H]3[C@@]4(C)CC[C@H](OC(C)=O)C(C)(C)[C@@H]4CC[C@@]3(C)[C@]1(C)CC2` ?
A) 11.6

====

- Test system: HCT-15 colon
- Protocol Details: NCI tumour cell line growth inhibition, 48 h
The following molecules are listed with their measured TGI values.

Check out these entries, answers already filled in.
1) COc1cc2c3c(n(CCN(C)C)c(=O)c2cc1OC)-c1cc2c(cc1C3=O)OCO2 > 100 µM
2) O=C(O)c1cc(=O)[nH]c(=S)[nH]1 > 100 µM

With those in mind, consider the next molecule.
Q) Hello, I am looking for reported TGI with HCT-15 colon for `CC(=O)[O-].CC(=O)[O-].[NH2-].[Pt+2].c1ccncc1` . Could you help?
A) > 100 µM

====

- Test system: NCI-H23 lung
- Protocol Details: NCI tumour cell line growth inhibition, 48 h; in the data active means GI50 below about 0.43 µM; inactive means the rest
In this exercise, the only acceptable responses are active, inactive

Some entries whose results are on file:
Molecule	Qualitative Label
CCN(CC)CCCC(Nc1c2ccc(Cl)cc2nc2ccc(OC)cc12)c1ccc(F)cc1 (centres undefined)	inactive
CC[O-].Cc1ccc2cccc([O-])c2n1.Cc1ccc2cccc([O-])c2n1.Cc1ccc2cccc([O-])c2n1.[Ti+4]	inactive
O=C1c2ccccc2-c2c1c1ccccc1c(=O)n2CCCN1CCN(CCCn2c3c(c4ccccc4c2=O)C(=O)c2ccccc2-3)CC1	inactive
CC(=O)OCC1OC(OC2=C(CC=C(Cl)Cl)C(=O)c3ccccc3C2=O)C(OC(C)=O)C(OC(C)=O)C1OC(C)=O (centres undefined)	inactive

Q) Which outcome did this test record for the molecule COc1cccc(C2C3=C(COC3=O)N(CCO)c3cc4c(cc32)OCCO4)c1 (centres undefined) ?
A) active

Q) Which outcome did this test record for the molecule `Cc1nc(/N=C(\N)NC(=O)Nc2ccccc2Cl)sc1C` ?
A) inactive

Q) Which outcome did this test record for the molecule NCC1OC(OC2C(CO)OC(OC3C(O)C(N)CC(N)C3OC3OC(CO)C(O)C(O)C3N)C2O)C(N)C(O)C1O (centres undefined) ?
A) inactive

Q) Which outcome did this test record for the molecule `N#Cc1c(NC(=O)CN2CCOCC2)sc2c1CCCC2` ?
A) inactive

Q) Which outcome did this test record for the molecule `CCCN(CCC)CCCNC(=O)c1cc2c(-c3ccc(OC)c(OC)c3)nn(C)c2s1` ?
A) inactive
